# Tested on: CHP-134 cells
# assay-explanation: CHP134 CellTiter-Glo (CTG) Assay
# Format: cell-based
# condition-summary: Homo sapiens, 120 h, 5 days, viable cells by CellTiter-Glo
property: IC50 (nM)
Numbers only, in nM.

Looking up COc1ccc2c(c1)[C@]1(C[C@H]1c1ccc3c(Nc4nc(C#N)nc(N5CCOCC5)c4OC)n[nH]c3c1)C(=O)N2 , I see its IC50 listed as 2380

----------
Give [Aurora B IC50 (nM)]/[PLK4 IC50 (nM)] for every item shown.
# target-of-assay: human recombinant Aurora B (Homo sapiens (Human), UniProt Q96GD4)
# Sequence (Q96GD4 whole entry): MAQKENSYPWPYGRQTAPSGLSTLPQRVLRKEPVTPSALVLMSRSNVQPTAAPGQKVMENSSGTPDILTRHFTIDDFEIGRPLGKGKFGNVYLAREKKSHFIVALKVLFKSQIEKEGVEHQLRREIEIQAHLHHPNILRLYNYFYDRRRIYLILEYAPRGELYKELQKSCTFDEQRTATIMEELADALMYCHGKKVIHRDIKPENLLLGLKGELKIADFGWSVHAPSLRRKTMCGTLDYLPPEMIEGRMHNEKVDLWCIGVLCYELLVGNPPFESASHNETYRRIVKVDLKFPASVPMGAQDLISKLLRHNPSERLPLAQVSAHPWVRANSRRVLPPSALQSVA
# assay-explanation: Aurora B Kinase Biochemical Assay (ADP-Glo)
# condition-summary: ratio of Aurora B IC50 to PLK4 IC50 (selectivity)
# Description: Activity of human recombinant Aurora B (ThermoFisher, cat #PR9210B) was measured by quantification of adenosine diphosphate (ADP) using the ADP-Glo Kinase Assay Kit (Promega, cat #V9102). […] The simultaneous conversion of the remaining ADP to ATP and measurement of the newly synthesized ATP was achieved by addition of 20 µL Kinase Detection reagent (Promega, cat #V914B), incubation for 30 min at RT, and luminescence detection using the EnVision plate reader (PerkinElmer). […]
Numbers only.

| smiles | property | observed-result |
| --- | --- | --- |
| COc1ccc2c(c1)[C@]1(C[C@H]1c1ccc3c(Nc4cc(N5CCOCC5)nc(C(C)C)n4)n[nH]c3c1)C(=O)N2 | [Aurora B IC50 (nM)]/[PLK4 IC50 (nM)] | 74.7 |
| CCOc1cc(S(C)(=O)=O)ccc1Nc1n[nH]c2cc([C@@H]3C[C@@]34C(=O)Nc3ccc(OC)cc34)ccc12 | [Aurora B IC50 (nM)]/[PLK4 IC50 (nM)] | 448.8595 |
| CNC(=O)c1ccc(OC)c(Nc2n[nH]c3cc([C@@H]4C[C@@]45C(=O)Nc4ccc(OC)cc45)ccc23)c1 | [Aurora B IC50 (nM)]/[PLK4 IC50 (nM)] | 11750.8813 |
| CCS(=O)(=O)c1cnc(Nc2n[nH]c3cc([C@@H]4C[C@@]45C(=O)Nc4ccc(OC)cc45)ccc23)c(OC)c1 | [Aurora B IC50 (nM)]/[PLK4 IC50 (nM)] | 340.4602 |
| COc1ccc2c(c1)[C@]1(C[C@H]1c1ccc3c(Nc4cnc(S(C)(=O)=O)cc4OC)n[nH]c3c1)C(=O)N2 | [Aurora B IC50 (nM)]/[PLK4 IC50 (nM)] | 253.4697 |

Need [Aurora B IC50 (nM)]/[PLK4 IC50 (nM)] for each of these molecules.
1. COc1ccc2c(c1)[C@]1(C[C@H]1c1ccc3c(Nc4ncnc(N5CC(O)C5)c4Cl)n[nH]c3c1)C(=O)N2
2. COc1ccc2c(c1)[C@]1(C[C@H]1c1ccc3c(Nc4nc(C5CC5)nc(N5CC(O)C5)c4Cl)n[nH]c3c1)C(=O)N2

### Response
1. 135.8985
2. 535.4839

Below are some molecules; for each one, tell me its [Aurora B IC50 (nM)]/[PLK4 IC50 (nM)].
1. COc1ccc2c(c1)[C@]1(C[C@H]1c1ccc3c(Nc4nc(C(C)(C)O)ccc4OC)n[nH]c3c1)C(=O)N2
2. COc1ccc2c(c1)[C@]1(C[C@H]1c1ccc3c(Nc4cn(C)nc4C(F)(F)F)n[nH]c3c1)C(=O)N2
3. COc1ccc2c(c1)[C@]1(C[C@H]1c1ccc3c(Nc4cc(C)nn4C)n[nH]c3c1)C(=O)N2
4. COc1ccc2c(c1)[C@]1(C[C@H]1c1ccc3c(Nc4cc(S(=O)(=O)N5CCOCC5)ccc4OC)n[nH]c3c1)C(=O)N2
5. CCOc1nc(S(C)(=O)=O)ccc1Nc1n[nH]c2cc([C@@H]3C[C@@]34C(=O)Nc3ccc(OC)cc34)ccc12

### Response
1: 423.6318; 2: 98.84; 3: 37.14; 4: 18601.19048; 5: 321.4179

# batch: return [Aurora B IC50 (nM)]/[PLK4 IC50 (nM)] for each of the 2 molecules below
1. COc1ccc2c(c1)[C@]1(C[C@H]1c1ccc3c(Nc4nc(N5CC(O)C5)ncc4OC)n[nH]c3c1)C(=O)N2
2. CNS(=O)(=O)c1cc(OC)c(Nc2n[nH]c3cc([C@@H]4C[C@@]45C(=O)Nc4ccc(OC)cc45)ccc23)cc1C

### Response
[811.5734, 316.5430]
